- Test Method Notes: chemical genetic growth profiling, strain panel (AID 1159580);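 further: tested at 20 µM; growth read once vehicle control cultures reached saturation at 30 °C; 1 = growth at the plate median or of vehicle wells; lower values mean less growth of the strain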
- Stated Conditions: S. cerevisiae deletion strains, growth OD, locus YDR318W, strain mcm21, hits give low values
The whole screen tested about 5,500 compounds, of which about 2,000 (36%) were called active. Another 18% or so got no clear call; they are omitted. Some of the results follow.
Reported Property: normalized growth
Answer with a number only.

Below, each entry is followed by its recorded normalized growth result.
>>> measured_result("NC(=NCCC[C@H](N)C(=O)O)NC(CCC(=O)O)C(=O)O (stereo partly specified)")
1
>>> measured_result("C=CC(C)(O)CC/C=C(\\C)CCC=C(C)C (stereo unspecified)")
0.99
>>> measured_result("NCC(O)c1ccc(O)cc1 (stereo unspecified)")
0.963
>>> measured_result("CNC[C@@H](O)c1ccc(O)c(O)c1")
0.983
>>> measured_result("CCN(CC)CCOc1ccc(/C(=C(\\Cl)c2ccccc2)c2ccccc2)cc1")
0.0641

Query molecule follows.
Problem: Sample CC(C)=CCC[C@](C)(O)C1CC=C(C)CC1 (stereo partly specified) — what was its normalized growth?
Solution: 1

* * *

- Test Method Notes: chemical genetic growth profiling, strain panel (AID 1159580);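 further: tested at 20 µM; growth read once vehicle control cultures reached saturation at 30 °C; 1 = growth at the plate median or of vehicle wells; lower values mean less growth of the strain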
- Stated Conditions: S. cerevisiae deletion strains, growth OD, locus YLR403W, strain SFP1, hits give low values
In all, about 5,500 compounds went through this assay and about 2,000 (36%) were called active. Another 18% or so got no clear call; they are omitted. Some of the results follow.
So basically, if normalized growth comes in under 0.9 it's true, and if it's 0.9 or more it's false.

// below: answered compounds
>>> label_class("CC(=O)Nc1ccc(/C=C/[N+](=O)[O-])cc1")
"true"
>>> label_class("CCCc1c(C(=O)NC2Cc3ccccc3C2)cnn1-c1ccccc1")
"false"
>>> label_class("O=[N+]([O-])c1cc(Br)cnc1Sc1nnc(SCC2CC2)s1")
"true"
>>> label_class("O=S(=O)(N/N=C\\c1ccc(Cl)cc1)c1ccc(-c2ccccn2)s1")
"false"
>>> label_class("FC(F)(F)c1cccc(NC(=S)Nc2csc(C(F)(F)F)c2-c2ccccc2)c1")
"false"

Problem: For the compound O=[N+]([O-])/C=C/c1ccsc1 , is normalized growth under 0.9?
Solution: true

Problem: Now consider CSc1cc(-c2ccncc2)nc(-c2cccs2)c1 .
Solution: false

Problem: Also CC(C)c1ccc(NCC(O)CSc2ccccc2)cc1 (configuration not stated) , if possible.
Solution: true

Problem: Now consider Cc1cccc(Cl)c1/C=N\NC(N)=S and answer again.
Solution: true

Problem: Similarly, S=C(N/N=C\c1ccc(Cl)cc1)N/N=C\c1ccc(Cl)cc1 ?
Solution: true

* * *

- Test Method Notes: chemical genetic growth profiling, strain panel (AID 1159580);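 further: tested at 20 µM; growth read once vehicle control cultures reached saturation at 30 °C; 1 = growth at the plate median or of vehicle wells; lower values mean less growth of the strain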
- Stated Conditions: S. cerevisiae deletion strains, growth OD, locus YFL009W, strain cdc4, hits give low values
Among all 5,500 compounds or so, about 2,000 (36%) were called active. Inconclusive results (about 18%) are left out. The list shows a part of the results.
The compounds listed here are annotated with their normalized growth.
Answer with a bare number; do not write a unit.

Here are 3 compounds together with their reported answers.
>>> measured_result("FC(F)(F)c1cccc(NNC(=S)Nc2ccccc2)c1")
1
>>> measured_result("CC(C)c1ccc(N2C=Nc3ccc(C(C)C)cc3C2)cc1")
1
>>> measured_result("O=C(Nc1ccc(N2CCOCC2)cc1)c1ccc(-n2cccn2)cc1")
0.988

Problem: Entry COC(=O)C1=C(C)NC(C)=C(C(=O)OC)C1c1ccc(Cl)cc1Cl has what normalized growth?
Solution: 0.968

Problem: Would you kindly repeat that for N#CC(C#N)=C/C=C(/Sc1ccc(F)c(Cl)c1)c1ccc(Cl)cc1 ?
Solution: 0.943

Problem: # iterate: O=[N+]([O-])/C=C/c1ccsc1
Solution: 0.09

Problem: Then what about the compound CCOC(=O)C1=C(N)OC2=C(C(=O)CC(C)(C)C2)C1c1ccc(Cl)cc1Cl (stereo unspecified) ?
Solution: 0.974

Problem: What do you get for Cc1nn(Cc2ccc(C(=O)Sc3ccc(C(F)(F)F)cn3)o2)c(C)c1Br ?
Solution: 0.957
